# Test system: NCI/ADR-RES ovarian
# Test Name: NCI tumour cell line growth inhibition, 48 h
Rule: TGI of 20 µM or more gives rule met; anything lower gives rule not met.

Compound	Tested Target	Group
CCCCCCCCCCOC1C(C(C)OCCCN(C)C)OC2OC3(CCCCC3)OC21 (configuration not stated)	NCI/ADR-RES ovarian	rule met
COc1ccc(CC(C#N)c2cc(OC)c(OC)c(OC)c2)cc1 (configuration not stated)	NCI/ADR-RES ovarian	rule met
ClC1=C(Cl)C(Cl)=C(Cl)C1=Cc1ccc(Cl)cc1Cl	NCI/ADR-RES ovarian	rule not met
CCCCCC/C=C\CCCCCCCCCc1c(O)c(OC)cc(O)c1CN(C)C	NCI/ADR-RES ovarian	rule met
O=C(O)CCc1nc(-c2ccccc2)c(-c2ccccc2)o1	NCI/ADR-RES ovarian	rule met
COc1cc(C(c2cc(OC)c(OC)c(OC)c2)N2C(=O)CCC2C(=O)O)cc(OC)c1OC (configuration not stated)	NCI/ADR-RES ovarian	rule met
O=C1C(Nc2cccc(O)c2)=C(Sc2ccc(Cl)cc2)C(=O)N1Cc1ccccc1	NCI/ADR-RES ovarian	rule met
CC(=N\N=C\c1ccccn1)/C(C)=N/N=C/c1ccccn1	NCI/ADR-RES ovarian	rule met
S=C1NC2=C(COC/C2=C\c2ccccc2Cl)C(c2ccccc2Cl)N1 (configuration not stated)	NCI/ADR-RES ovarian	rule met
O=C(Nc1ccc(Cl)cc1)c1cc(S(=O)(=O)NC2=NC(c3ccccc3)c3cc(Cl)ccc3N2)c(SSc2cc(Cl)c(C(=O)Nc3ccc(Cl)cc3)cc2S(=O)(=O)NC2=NC(c3ccccc3)c3cc(Cl)ccc3N2)cc1Cl (configuration not stated)	NCI/ADR-RES ovarian	rule met
CC(C)[C@H](O)C(=O)N[C@H]1Cc2ccc3c(c2)[C@]24C5=C(N=C(O5)[C@H](C(C)C)NC1=O)c1nc(Cl)c(o1)-c1c(Cl)[nH]c5cccc(c15)-c1cccc2c1N[C@H]4O3	NCI/ADR-RES ovarian	rule not met
O=C(O)C1Cc2ccccc2OC1=O (configuration not stated)	NCI/ADR-RES ovarian	rule met
CCN(CC)CCNc1ccc2nnn3c4ccc(OC(C)=O)cc4c(=O)c1c23	NCI/ADR-RES ovarian	rule not met
C[n+]1c(-c2ccc(/C=N/Nc3n[nH]c(=S)n3N/N=C/c3ccc(-c4cn5ccccc5[n+]4C)cc3)cc2)cn2ccccc21	NCI/ADR-RES ovarian	rule met
O=c1[nH]c2cc([N+](=O)[O-])c(N(CCO)CCO)c([N+](=O)[O-])c2[nH]1	NCI/ADR-RES ovarian	rule met
O=S(=O)(Nc1nc(-c2cc(O)c(O)c(O)c2)cs1)c1ccc(Cl)cc1Cl	NCI/ADR-RES ovarian	rule met
Cc1[nH]ccc2cc3nc4ccccc4c3cc12	NCI/ADR-RES ovarian	rule not met
O=C1/C(=C/c2ccc(C(F)(F)F)cc2)COc2ccc(O)cc21	NCI/ADR-RES ovarian	rule not met
COC(=O)C[C@](O)(CCC(C)(C)O)C(=O)O[C@@H]1C(OC)=C[C@]23CCCN2CCc2cc4c(cc2[C@H]13)OCO4	NCI/ADR-RES ovarian	rule met
Cc1ccc(N2C(=O)C(O)=C(C(=O)C(C)(C)C)C2c2ccc([N+](=O)[O-])cc2)cc1 (configuration not stated)	NCI/ADR-RES ovarian	rule met
Cc1cc(O)c(/C=N/C(=O)NN)c(=O)o1	NCI/ADR-RES ovarian	rule met
CC(C)(C)n1cc(-c2ccnc(NCCCNS(=O)(=O)c3ccc(Cl)cc3)c2)c(-c2cccc(O)c2)n1	NCI/ADR-RES ovarian	rule not met
COC(=O)C1(Cc2ccc3c(c2)CCC3)Cc2cc3c(cc2C1=O)CCC3 (configuration not stated)	NCI/ADR-RES ovarian	rule met
COc1cccc2cc(N(C)c3nc(C)nc4ccsc34)ccc12	NCI/ADR-RES ovarian	rule not met
C=C(C)C1CCC2(CO)C(O)CC3(C)C(CCC4C5(C)CCC(O)C(C)(C)C5CCC43C)C12 (configuration not stated)	NCI/ADR-RES ovarian	rule met
O=C(OCc1c(-c2ccccc2)nn(-c2ccccc2)c1COC(=O)Oc1ccccc1)Oc1ccccc1	NCI/ADR-RES ovarian	rule met
CC1(C)N=C(/C(C#N)=[N+](/[O-])C(=O)c2ccccc2)C(C)(C)N1O	NCI/ADR-RES ovarian	rule met

Source listed as PubChem BioAssay (NCI).
